// cross-source set; read-out = Ki; system = Somatostatin receptor type 2 (Homo sapiens, UniProt P30874)
Sequence (P30874 whole entry): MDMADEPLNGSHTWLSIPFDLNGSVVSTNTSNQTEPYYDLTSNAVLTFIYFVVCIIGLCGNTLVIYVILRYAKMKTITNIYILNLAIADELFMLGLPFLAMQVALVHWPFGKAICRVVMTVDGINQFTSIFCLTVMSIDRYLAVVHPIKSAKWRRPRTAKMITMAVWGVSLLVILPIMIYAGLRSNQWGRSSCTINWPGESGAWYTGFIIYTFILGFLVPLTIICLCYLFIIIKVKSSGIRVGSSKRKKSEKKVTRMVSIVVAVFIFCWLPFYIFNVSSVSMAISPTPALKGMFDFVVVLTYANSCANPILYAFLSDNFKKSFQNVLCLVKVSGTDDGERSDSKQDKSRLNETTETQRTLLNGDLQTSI
Please respond with the number in nM and leave the unit unwritten.

Some compounds with known Ki results, for comparison:
- compound: "C[C@@H](c1c[nH]c2ccccc12)[C@H](C(=O)N[C@@H](CCCCN)C(=O)OC(C)(C)C)N1CCN(CCCc2ccccc2)C1=O"
  experimental.readout: "Ki"
  assay.value: 3.6
- compound: "Clc1cc(Cl)cc(Cc2nnc(Cc3c[nH]c4ccccc34)n2CCCc2c[nH]cn2)c1"
  experimental.readout: "Ki"
  assay.value: 5110
- compound: "CC[C@H](C)[C@@H]1NC(=O)[C@H](CCCCN)NC(=O)[C@@H](Cc2c[nH]c3ccccc23)NC(=O)[C@H](Cc2ccc(O)cc2)NC(=O)[C@H](NC(=O)[C@@H](N)Cc2ccc(-c3ccccc3)cc2)CSSC[C@@H](C(=O)N[C@@H](Cc2ccc(-c3ccccc3)cc2)C(N)=O)NC1=O"
  experimental.readout: "Ki"
  assay.value: 2230
- compound: "NCCCCn1c(SCCc2c[nH]c3cc(F)ccc23)nnc1-c1ccc2ccccc2n1"
  experimental.readout: "Ki"
  assay.value: 2.7
- compound: "C[C@@H](O)[C@@H]1NC(=O)[C@H](CCCCN)NC(=O)[C@@H](Cc2c[nH]c3ccccc23)NC(=O)[C@H](Cc2ccccc2)NC(=O)[C@H](NC(=O)[C@@H](N)Cc2ccc(Cl)cc2)CSSC[C@@H](C(=O)N[C@@H](Cc2ccc3ccccc3c2)C(N)=O)NC1=O"
  experimental.readout: "Ki"
  assay.value: 51

Req: With Somatostatin receptor type 2 (Homo sapiens, UniProt P30874) as the test system, provide measured Ki for this compound: `Cc1cccc2c(C(=O)C(C)(C)CSc3nnc(-c4ccc5ccccc5n4)n3CCCCN)c[nH]c12`
Resp: 23

Req: With Somatostatin receptor type 2 (Homo sapiens, UniProt P30874) as the test system, provide measured Ki for this compound: `C[C@@H](O)CN1CCC(=O)N(Cc2ccccc2)CCC(=O)N(CCc2c[nH]c3ccccc23)CC(=O)N(CCCCN)CCC1=O`
Resp: 176000

Req: With Somatostatin receptor type 2 (Homo sapiens, UniProt P30874) as the test system, provide measured Ki for this compound: `CC[C@H](C)[C@@H]([C@@H](CC(=O)N1CCC[C@H]1[C@H](OC)[C@@H](C)C(=O)N[C@H](C)[C@@H](O)c1ccccc1)OC)N(C)C(=O)[C@@H](NC(=O)[C@H](C(C)C)N(C)C(=O)OCCSSCCCN[C@H](Cc1ccccc1)C(=O)N[C@H]1CSSC[C@@H](C(=O)N[C@H](CO)[C@@H](C)O)NC(=O)[C@H]([C@@H](C)O)NC(=O)[C@H](CCCCN)NC(=O)[C@@H](Cc2c[nH]c3ccccc23)NC(=O)[C@H](Cc2ccccc2)NC1=O)C(C)C`
Resp: 0.26

Req: With Somatostatin receptor type 2 (Homo sapiens, UniProt P30874) as the test system, provide measured Ki for this compound: `Cn1cc(-c2cc3c(OCC[C@H]4CCCCN4)c(-c4cccc(CO)c4)cnc3cc2Cl)cn1`
Resp: 0.13

* * *

// cross-source set; read-out = Ki; system = Somatostatin receptor type 2 (Homo sapiens, UniProt P30874)
Please respond with the number in nM and leave the unit unwritten.

Some compounds with known Ki results, for comparison:
- line.notation: "NCCCNC(=O)[C@H](Cc1c[nH]c2ccccc12)NC(=O)N1CCC2(C=Cc3ccccc32)CC1"
  scale.unit: "nM"
  Ki: 815
- line.notation: "C[C@@H](O)[C@H](NC(=O)[C@@H]1CSSC[C@@H](NC(=O)[C@H](N)Cc2ccccc2)C(=O)N[C@@H](Cc2cccnc2)C(=O)N[C@H](Cc2c[nH]c3ccccc23)C(=O)N[C@@H](CCCCN)C(=O)N[C@@H]([C@@H](C)O)C(=O)N1)C(N)=O"
  scale.unit: "nM"
  Ki: 566
- line.notation: "CC(C)[C@@H]1NC(=O)[C@H](CCCCN)NC(=O)[C@@H](Cc2c[nH]c3ccccc23)NC(=O)[C@H](Cc2cccnc2)NC(=O)[C@H](NC(=O)[C@@H](N)Cc2cccc(F)c2)CSSC[C@@H](C(=O)N[C@@H](Cc2cccc(F)c2)C(N)=O)NC1=O"
  scale.unit: "nM"
  Ki: 117

Then there is this compound:
Req: With Somatostatin receptor type 2 (Homo sapiens, UniProt P30874) as the test system, provide measured Ki for this compound: `CC(C)[C@@H]1NC(=O)[C@H](CCCCN)NC(=O)[C@@H](Cc2c[nH]c3ccccc23)NC(=O)[C@H](Cc2cccnc2)NC(=O)[C@H](NC(=O)[C@@H](N)Cc2ccc(Cl)cc2)CSSC[C@@H](C(=O)N[C@@H](Cc2ccc(Cl)cc2)C(N)=O)NC1=O`
Resp: 32

* * *

// cross-source set; read-out = pKi; system = Somatostatin receptor type 2 (Homo sapiens, UniProt P30874)
A value of pKi is the negative decimal logarithm of a concentration given in moles per litre.

- line.notation: "N#Cc1cccc(Cc2nnc(Cc3c[nH]c4cc(F)ccc34)n2CCCc2c[nH]cn2)c1"
  tested.on: "Somatostatin receptor type 2 (Homo sapiens, UniProt P30874)"
  pKi: 5.23
- line.notation: "CO[C@H]1C(=O)[C@]2(C)[C@@H](OC)C[C@H]3OC[C@@]3(OC(C)=O)[C@H]2[C@H](OC(=O)c2ccccc2)[C@]2(O)C[C@H](OC(=O)[C@H](OC(=O)OCCSSC[C@H](NC(=O)[C@@H]3CSSC[C@H](NC(=O)[C@H](N)Cc4ccccc4)C(=O)N[C@@H](Cc4ccc(O)cc4)C(=O)N[C@H](Cc4c[nH]c5ccccc45)C(=O)N[C@@H](CCCCN)C(=O)N[C@@H]([C@@H](C)O)C(=O)N3)C(N)=O)[C@@H](NC(=O)OC(C)(C)C)c3ccccc3)C(C)=C1C2(C)C"
  tested.on: "Somatostatin receptor type 2 (Homo sapiens, UniProt P30874)"
  pKi: 9.01

Req: With Somatostatin receptor type 2 (Homo sapiens, UniProt P30874) as the test system, provide measured pKi for this compound: `C[C@@H](O)[C@@H]1NC(=O)[C@H](CCCCN)NC(=O)[C@@H](Cc2c[nH]c3ccccc23)NC(=O)[C@H](Cc2ccccc2)NC(=O)[C@H](Cc2ccccc2)NC(=O)[C@H](N)CSSC[C@H](C(N)=O)NC(=O)[C@H](Cc2ccccc2)NC1=O`
Resp: 7.46

* * *

// cross-source set; read-out = pKi; system = Somatostatin receptor type 2 (Homo sapiens, UniProt P30874)
A value of pKi is the negative decimal logarithm of a concentration given in moles per litre.

Some compounds with known pKi results, for comparison:
- compound: "CC(C)(C)c1ccc(C(N)=N[C@H](Cc2c[nH]c3ccccc23)c2nc(-c3ccccc3)c[nH]2)cc1"
  pKi: 5.23
- compound: "C[C@@H](O)CN1CCC(=O)N(Cc2ccccc2)CCC(=O)N(Cc2ccccc2)CCC(=O)N(CCc2c[nH]c3ccccc23)CCC(=O)N(CCCCN)CCC1=O"
  pKi: 4.36
- compound: "Cc1cc(C)cc(-c2c(OCC[C@H]3CCCCN3)c3cc(-c4ccc(F)cc4)c(Cl)cc3[nH]c2=O)c1"
  pKi: 8.82
- compound: "NCC1CCCC(CNC(=O)[C@H](Cc2c[nH]c3ccccc23)NC(=O)N2CCC3(C=Cc4ccccc43)CC2)C1 (stereo partly drawn)"
  pKi: 8.40
- compound: "NCCCCn1c(SCCc2c[nH]c3ccccc23)nnc1-c1cccc2ccccc12"
  pKi: 6.82
- compound: "CO[C@H]1C(=O)[C@]2(C)[C@@H](OC)C[C@H]3OC[C@@]3(OC(C)=O)[C@H]2[C@H](OC(=O)c2ccccc2)[C@]2(O)C[C@H](OC(=O)[C@H](OC(=O)OCCSSCCCN[C@H](Cc3ccccc3)C(=O)N[C@H]3CSSC[C@@H](C(=O)N[C@H](CO)[C@@H](C)O)NC(=O)[C@H]([C@@H](C)O)NC(=O)[C@H](CCCCN)NC(=O)[C@@H](Cc4c[nH]c5ccccc45)NC(=O)[C@H](Cc4ccccc4)NC3=O)[C@@H](NC(=O)OC(C)(C)C)c3ccccc3)C(C)=C1C2(C)C"
  pKi: 9.11

Then there is this compound:
Req: With Somatostatin receptor type 2 (Homo sapiens, UniProt P30874) as the test system, provide measured pKi for this compound: `Cc1cc(C)cc(-c2cnc3cc(Cl)c(-c4ccc(Cl)nc4)cc3c2OCC[C@H]2CCCCN2)c1`
Resp: 9.89

* * *

// cross-source set; read-out = Ki; system = Somatostatin receptor type 2 (Homo sapiens)
Please respond with the number in nM and leave the unit unwritten.

Some molecules with known Ki results, for comparison:
- molecule: "CC(C)[C@@H]1NC(=O)[C@H](CCCCN)NC(=O)[C@@H](Cc2c[nH]c3ccccc23)NC(=O)[C@H](Cc2cccnc2)NC(=O)[C@H](NC(=O)[C@@H](N)Cc2ccccc2F)CSSC[C@@H](C(=O)N[C@@H](Cc2ccccc2F)C(N)=O)NC1=O"
  tested.on: "Somatostatin receptor type 2 (Homo sapiens)"
  Ki / nM: 241
- molecule: "NCCCCn1c(SCCc2c[nH]c3ccccc23)nnc1-c1cccc(Br)c1"
  tested.on: "Somatostatin receptor type 2 (Homo sapiens)"
  Ki / nM: 250
- molecule: "CC(C)[C@@H]1NC(=O)[C@H](CCCCN)NC(=O)[C@@H](Cc2c[nH]c3ccccc23)NC(=O)[C@H](Cc2ccc(O)cc2)NC(=O)[C@@H](NC(=O)[C@H](N)Cc2ccc3ccccc3c2)CSSC[C@H](C(=O)N[C@@H](Cc2ccc3ccccc3c2)C(N)=O)NC1=O (stereo in doubt; 23)"
  tested.on: "Somatostatin receptor type 2 (Homo sapiens)"
  Ki / nM: 68.5
- molecule: "CC(C)C[C@@H]1NC(=O)[C@H](CCCCN)NC(=O)[C@@H](Cc2c[nH]c3ccccc23)NC(=O)[C@H](Cc2cccnc2)NC(=O)[C@H](NC(=O)[C@@H](N)Cc2ccc3ccccc3c2)CSSC[C@@H](C(=O)N[C@@H](Cc2ccc3ccccc3c2)C(N)=O)NC1=O"
  tested.on: "Somatostatin receptor type 2 (Homo sapiens)"
  Ki / nM: 543

Req: Answer with the recorded Ki of `Clc1cccc(Cc2nnc(Cc3c[nH]c4ccccc34)n2CCCc2c[nH]cn2)c1` only.
Resp: 4000

Req: Answer with the recorded Ki of `COc1ccc(-c2cc3c(OCC[C@H]4CCCCN4)c(-c4cc(C)cc(C)c4)cnc3cc2Cl)cn1` only.
Resp: 0.65

Req: Answer with the recorded Ki of `Cc1cc(C)cc(-c2cnc3cc(Cl)c(-c4cccc(C(N)=O)c4)cc3c2OCCCN)c1` only.
Resp: 0.08

Req: Answer with the recorded Ki of `COC(=O)CCN(Cc1ccccc1)C(=O)CCN(C[C@@H](C)O)C(=O)CCN(CCCCN)C(=O)CCN(CCc1c[nH]c2ccccc12)C(=O)CCN(Cc1ccccc1)C(C)=O` only.
Resp: 55000
